Test system: anti-peptide mouse IgG
Assay: Anti-peptide immune response assay (Elisa) on serum of immunized mice
Format: in vivo, Male C57BL/6 mice
Conditions: column 11; serum dilution 1:10000; read at 450 nm
Where no end group is shown, it is not given here.
Catalogue of substances with associated Elisa Test pep after B16FO given
value-kind: Elisa Test pep after B16FO given

# substance, reported-value
rows = [
    ("-C-H-F-P-F-I-F-E-G-R-S-Y-S-A-C- (CHFPFIFEGRSYSAC; cysteine pairing not given here; also: biotinylated, KLH conjugate) [MMP-9 A-1, MMP-9 oligopeptide, biotinylated and conjugated to KLH for immunization]", ".226"),
    ("-D-T-D-D-R-F-G-F- (DTDDRFGF; also: biotinylated, KLH conjugate) [M MP-9 A-2, MMP-9 oligopeptide, biotinylated and conjugated to KLH for immunization]", ".161"),
    ("-D-R-D-K-L-F-G-F-C-P-T-R-A-D-S- (DRDKLFGFCPTRADS; also: biotinylated, KLH conjugate) [MMP-9 A-3, MMP-9 oligopeptide, biotinylated and conjugated to KLH for immunization]", ".158"),
    ("-C-P-R-K-P-K-W-D-K-C- (CPRKPKWDKC; cysteine pairing not given here; also: biotinylated, KLH conjugate) [MMP-2 A-4, MMP-2 oligopeptide, biotinylated and conjugated to KLH for immunization]", ".230"),
]

----------
// reported Elisa Test pep before B16FO given for each item listed
System: anti-peptide mouse IgG
Test: Anti-peptide immune response assay (Elisa) on serum of immunized mice
Assay type: in vivo, Male C57BL/6 mice
Conditions: column 5; serum dilution 1:10000; read at 450 nm
Where no end group is shown, it is not given here.

# substance, Elisa Test pep before B16FO given
records = [
    ("-D-T-D-D-R-F-G-F- (DTDDRFGF; also: biotinylated, KLH conjugate) [M MP-9 A-2, MMP-9 oligopeptide, biotinylated and conjugated to KLH for immunization]", ".224"),
    ("-C-H-F-P-F-I-F-E-G-R-S-Y-S-A-C- (CHFPFIFEGRSYSAC; cysteine pairing not given here; also: biotinylated, KLH conjugate) [MMP-9 A-1, MMP-9 oligopeptide, biotinylated and conjugated to KLH for immunization]", ".394"),
    ("-C-P-R-K-P-K-W-D-K-C- (CPRKPKWDKC; cysteine pairing not given here; also: biotinylated, KLH conjugate) [MMP-2 A-4, MMP-2 oligopeptide, biotinylated and conjugated to KLH for immunization]", ".220"),
    ("-D-R-D-K-L-F-G-F-C-P-T-R-A-D-S- (DRDKLFGFCPTRADS; also: biotinylated, KLH conjugate) [MMP-9 A-3, MMP-9 oligopeptide, biotinylated and conjugated to KLH for immunization]", ".159"),
]

----------
# key: entry, value: Elisa Test pep before B16FO given
Tested on: anti-peptide mouse IgG
Assay: Anti-peptide immune response assay (Elisa) on serum of immunized mice
Type: in vivo, Male C57BL/6 mice
Settings: column 8; serum dilution 1:10000; read at 450 nm
Where no end group is shown, it is not given here.
value-kind: Elisa Test pep before B16FO given

# substance, value-kind, reported-value
records = [
    ("-D-R-D-K-L-F-G-F-C-P-T-R-A-D-S- (DRDKLFGFCPTRADS; also: biotinylated, KLH conjugate) [MMP-9 A-3, MMP-9 oligopeptide, biotinylated and conjugated to KLH for immunization]", "Elisa Test pep before B16FO given", ".267"),
    ("-C-H-F-P-F-I-F-E-G-R-S-Y-S-A-C- (CHFPFIFEGRSYSAC; cysteine pairing not given here; also: biotinylated, KLH conjugate) [MMP-9 A-1, MMP-9 oligopeptide, biotinylated and conjugated to KLH for immunization]", "Elisa Test pep before B16FO given", ".330"),
    ("-D-T-D-D-R-F-G-F- (DTDDRFGF; also: biotinylated, KLH conjugate) [M MP-9 A-2, MMP-9 oligopeptide, biotinylated and conjugated to KLH for immunization]", "Elisa Test pep before B16FO given", ".175"),
    ("-C-P-R-K-P-K-W-D-K-C- (CPRKPKWDKC; cysteine pairing not given here; also: biotinylated, KLH conjugate) [MMP-2 A-4, MMP-2 oligopeptide, biotinylated and conjugated to KLH for immunization]", "Elisa Test pep before B16FO given", ".168"),
]

Hello, the source for this data is patent US8067009B1, in case you need it.
